Reference source: PubChem BioAssay (NCI)

System: NCI-H460 lung
Experiment: NCI tumour cell line growth inhibition, 48 h
RECORDED ENDPOINT: GI50

>>> experimental_value("CCOC(=O)c1c(CN2CCCCC2)nc2ccc(Cl)cc2c1-c1ccccc1")
"20 µM"
>>> experimental_value("C=C(CN1CCN(c2cc(C(F)(F)F)cc(C(F)(F)F)c2)CC1)c1ccc(C(=O)Nc2ccccc2N)cc1")
"4.09 µM"
>>> experimental_value("O=C1c2ccccc2-c2cn(Cc3ccccc3)c3cccc(c23)C1c1cccnc1 (stereo not given)")
"1.9 µM"
>>> experimental_value("COc1cc(/C=N\\Nc2ccccc2)ccc1OC(=O)c1ccccc1")
"1.22 µM"
>>> experimental_value("O=C(NCCN1CCOCC1)c1cc2c(Oc3ccc(NC(=O)C4(C(=O)Nc5ccc(F)cc5)CC4)cc3)ccnc2[nH]1")
"4.36 µM"

---

Catalogue of TGI readings, one per entry.
System: OVCAR-8 ovarian
Experiment: NCI tumour cell line growth inhibition, 48 h
RECORDED ENDPOINT: TGI

>>> experimental_value("O=C(O)CN(CCN(CC(=O)O)CC(=O)O)CC(=O)O.[Cu+2].[Na+]")
"> 100 µM"
>>> experimental_value("NN=C1/C(=C\\c2ccccc2)CCC/C1=C/c1ccccc1")
"> 100 µM"
>>> experimental_value("CCc1ccc([OH2+])c(C(=O)[O-])c1.CCc1ccc([OH2+])c(C(=O)[O-])c1.CCc1ccc([OH2+])c(C(=O)[O-])c1.CCc1ccc([OH2+])c(C(=O)[O-])c1.[Cu+2].[Cu+2]")
"> 100 µM"
>>> experimental_value("COC1=CC(=O)[C@@]2(C)C(C)[C@H](c3ccccc3)[C@H]2C1=O (some centres undefined)")
"> 100 µM"
>>> experimental_value("Nc1nc(SCC#CCCl)c2[nH]cnc2n1")
"33.1 µM"
>>> experimental_value("O=C(NOCCO)c1ccc2cncn2c1Nc1ccc(I)cc1F")
"> 100 µM"
>>> experimental_value("COc1ccc(Cl)cc1NC(=O)O/N=C(\\Cl)C(C)C")
"32.7 µM"
>>> experimental_value("CCOC(=O)C1=C(C)N(NC(=O)Nc2ccccc2)C2(N)N(NC(=O)Nc3ccccc3)C(C)=C(C(=O)OCC)C12C#N (centres undefined)")
"33.4 µM"
>>> experimental_value("O=[N+]([O-])c1ccc(CSC2=C(c3ccc(Cl)cc3)S/C(=C3\\SC(SCc4ccc([N+](=O)[O-])cc4)=C(c4ccc(Cl)cc4)S3)S2)cc1")
"> 100 µM"

---

Tested on: SNB-75 CNS
Experiment: NCI tumour cell line growth inhibition, 48 h
RECORDED ENDPOINT: TGI (µM)

>>> experimental_value("O=[N+]([O-])c1ccc(N=P(c2ccccc2)(c2ccccc2)c2ccccc2)n2nnnc12")
42.6
>>> experimental_value("CCOC(=O)c1cccc(N=NNc2cccc(C(=O)OCC)c2)c1")
36.9

---

Catalogue of TGI readings, one per entry.
Tested on: CAKI-1 renal
Assay: NCI tumour cell line growth inhibition, 48 h
RECORDED ENDPOINT: TGI (µM)

>>> experimental_value("CC(C)C1OC(=O)C(Cc2ccccc2)N(C)C(=O)C(C(C)C)OC(=O)C(Cc2ccccc2)N(C)C(=O)C(C(C)C)OC(=O)C(Cc2ccccc2)N(C)C1=O (stereo unspecified)")
2.46
>>> experimental_value("Clc1ccc(Cc2nc3cc(Cl)c(Cl)cc3n2CC2CCCN3CCCCC23)cc1 (stereo unspecified)")
34.1
>>> experimental_value("NC1CC(=O)c2c(I)sc(I)c21 (stereo unspecified)")
27.1
>>> experimental_value("CN(C)CCCn1c(-c2ccc(Br)cc2)csc1=Nc1ccccc1")
41
>>> experimental_value("CN1CCN(Cc2ccc(NC(=O)c3cncc(C#Cc4c(N)ncc5ccccc45)c3)cc2C(F)(F)F)CC1")
1.44

---

Catalogue of TGI readings, one per entry.
Tested on: OVCAR-5 ovarian
Assay: NCI tumour cell line growth inhibition, 48 h
RECORDED ENDPOINT: TGI

>>> experimental_value("O=C(O)CCCCCNCc1cc2cc3c(cc2c2cc(OCc4ccccc4)ccc12)OCO3")
"5.23 µM"
>>> experimental_value("CC1=C(C(=S)Nc2ccc(Cl)c(C(=O)OC(C)C)c2)SCCO1")
"> 100 µM"
>>> experimental_value("Cc1csc(NCc2ccc(Cl)cc2)n1")
"> 100 µM"
>>> experimental_value("CCOC(=O)Nc1cc2c(c(N)n1)N=C(c1ccc(Cl)cc1Cl)CN2")
"45.1 µM"
>>> experimental_value("CC(=O)N(C(=O)CC(=O)N1N=C(C)C(N=Nc2cccc([N+](=O)[O-])c2)C1=O)c1ccc(Cl)cc1 (stereo not given)")
"> 10 µM"
>>> experimental_value("CCCCCCNC(=O)CCN(C(=O)O)S(=O)(=O)c1ccc(NC(=O)c2ccccc2)cc1")
"> 100 µM"
>>> experimental_value("CC/C(CC(=O)CCC(=O)Nc1ccc(C)c(C)c1)=N\\NC(=O)c1cc2ccccc2cc1O")
"> 100 µM"
>>> experimental_value("CN(CCNC(=O)c1nn(C)c2c1Cc1ccccc1-2)CCNC(=O)c1nn(C)c2c1Cc1ccccc1-2")
"89 µM"
>>> experimental_value("Cc1ccc(C)c(N2CCN(c3ccncc3N)CC2)c1")
"> 100 µM"
>>> experimental_value("C/C(=C\\COP(=O)(O)OP(=O)(O)O)CC/C=C(\\C)CNc1c(F)c(F)c(F)c(F)c1F")
"> 100 µM"

---

Tested on: IGROV1 ovarian
Experiment: NCI tumour cell line growth inhibition, 48 h; in the data active = GI50 below about 0.43 µM; inactive = the rest
Possible outcomes: active, inactive

>>> label("CNC(=O)c1sc(-n2cnc3cc(OC)c(OC)cc32)cc1OCc1ccccc1C(F)(F)F")
"inactive"
>>> label("C=C1C(C)C2C(Cc3ccccc3)NC(=O)C23C(OC(C)=O)C=CC(C)(O)C(=O)C(C)C/C=C/C3C1O (stereo not drawn)")
"inactive"
>>> label("CC[C@H](C)[C@H](NC(=O)CN(C)C)C(=O)N(C)[C@H](C[C@@H](OC(C)=O)c1nc(C(=O)NC23C4C5C2C2C3C4C52C(=O)OC)cs1)C(C)C (stereo partly drawn)")
"inactive"
>>> label("COc1cc(C(=O)/C=C/c2c[nH]c3ccccc23)cc(OC)c1OC")
"active"
>>> label("NS(=O)(=O)c1cccc(Nc2cc(-c3ccc(F)cc3)[nH]n2)c1")
"inactive"
>>> label("O=C(O)CCCCCNCc1cc2cc3c(cc2c2cc(OCc4ccccc4)ccc12)OCO3")
"inactive"
>>> label("O=C(c1ccccc1)c1nn(-c2cccc(Cl)c2)c2nc3nc(-c4ccccc4)cc(=O)n3nc12")
"inactive"
>>> label("COc1cc(/C=N\\Nc2ccccc2)ccc1OC(=O)c1ccccc1")
"inactive"
>>> label("CC/C(=C/c1ccc(OC)cc1)[N+](=O)[O-]")
"inactive"
>>> label("COc1ccc(/C(=C(\\c2ccccc2)[N+](=O)[O-])c2ccc(OCCN3CCCC3)cc2)cc1")
"inactive"
>>> label("Cc1ccc(C)c(N2CCN(c3ccncc3N)CC2)c1")
"inactive"
>>> label("O=C(CC1(O)C(=O)Nc2ccc(Cl)cc21)c1ccc(C(=O)NCC2CCC3(CC2)OOC2(CCCCC2)OO3)cc1 (stereo not drawn)")
"inactive"
>>> label("COc1cc(OC)c(/C=C/S(=O)(=O)Cc2ccc(OC)c(N)n2)c(OC)c1")
"active"

---

Test system: HCC-2998 colon
Assay: NCI tumour cell line growth inhibition, 48 h
Catalogue of TGI readings, one per entry.
RECORDED ENDPOINT: TGI

>>> experimental_value("CN(C)CCCn1c(-c2ccc(Br)cc2)csc1=Nc1ccccc1")
"18.3 µM"
>>> experimental_value("Cc1cnc(C(=O)Nc2nc3ccc(S(=O)(=O)Nc4ccc(C(C)(C)C)cc4)cc3[nH]2)cn1")
"10.7 µM"
>>> experimental_value("COc1cc(C2c3cc4c(cc3[C@@H](Nc3ccc(F)cc3)C3COC(=O)[C@H]23)OCO4)cc(OC)c1O (stereo partly specified)")
"8.96 µM"
>>> experimental_value("O=C(CC(C(=O)c1ccsc1)c1cccs1)c1cccs1 (stereo unspecified)")
"> 100 µM"
>>> experimental_value("N#C/C(=C/c1ccc([N+](=O)[O-])o1)c1ccccc1")
"> 100 µM"
>>> experimental_value("Nc1ncc(CN2CCCC2)c(-c2ccccc2O)n1")
"> 750 µM"
>>> experimental_value("COC(=O)c1sc2c(c1C(=O)OC)C(=Nc1ccc(OC)cc1)SC2=Nc1ccc(OC)cc1")
"3.17 µM"
>>> experimental_value("O=C(c1ccccc1)c1nn(-c2cccc(Cl)c2)c2nc3nc(-c4ccccc4)cc(=O)n3nc12")
"> 25 µM"
>>> experimental_value("Cc1c2ccncc2c(C)c2c1[nH]c1ccc(O)cc12")
"1.63 µg/mL"
>>> experimental_value("CSc1ccc(-c2cn3ccsc3n2)cc1")
"> 100 µM"
>>> experimental_value("C=CCCCCCCCCCOC1C=CC(O)C(CO)O1 (stereo unspecified)")
"> 100 µM"
